Attribution: ChEMBL document CHEMBL5724914

experiment: The drug is tested on WLS-006 corresponding to human gut metagenome with ENA study accession number: PRJEB37062 and ENA sample accession number: ERS12561741 for biotransformation under anaerobic condition. The drug concentrations were measured over 9 timepoints collected between 0 and 24 hours of incubation by liquid-chromatography-coupled mass spectrometry (LC–MS); conditions: 2 µM; also: call rule not given here
quantity: Bacterial Biotransformation

Here is how some molecules turned out for Bacterial Biotransformation.
COC(=O)C1=C(C)NC(C)=C(C(=O)OC(C)C)C1c1cccc2nonc12 (configuration not stated) ... Compound NOT metabolized
COc1ccc2c(c1OC)C(=O)O[C@@H]2[C@H]1c2c(cc3c(c2OC)OCO3)CCN1C ... Compound metabolized
CCOC(=O)[C@H](CCc1ccccc1)N[C@@H](C)C(=O)N1[C@H](C(=O)O)C[C@@H]2CCC[C@@H]21 ... Compound metabolized
CNS(=O)(=O)Cc1ccc2[nH]cc(CCN(C)C)c2c1.O=C(O)CCC(=O)O [SUMATRIPTAN SUCCINATE] ... Compound NOT metabolized
CN1C(=O)CC(C)(c2ccccc2)C1=O (configuration not stated) [METHSUXIMIDE] ... Compound NOT metabolized
Cc1nc2n(c(=O)c1CCN1CCC(c3noc4cc(F)ccc34)CC1)CCCC2O (configuration not stated) ... Compound metabolized

Field: next molecule
Bacterial Biotransformation lookup needed for CCC(=O)NCC[C@@H]1CCc2ccc3c(c21)CCO3 , thanks.
Compound metabolized

* * *

test: The drug is tested on Z-021 corresponding to metagenome with ENA study accession number: PRJEB37062 and ENA sample accession number: ERS12561820 for biotransformation under anaerobic condition. The drug concentrations were measured over 9 timepoints collected between 0 and 24 hours of incubation by liquid-chromatography-coupled mass spectrometry (LC–MS); details: 2 µM
quantity: Bacterial Biotransformation

OCCN1CCN(CCCN2c3ccccc3Sc3ccc(C(F)(F)F)cc32)CC1 [FLUPHENAZINE] ... Compound metabolized
CN1C(=O)CC(C)(c2ccccc2)C1=O (configuration not stated) [METHSUXIMIDE] ... Compound metabolized
Cc1nc2n(c(=O)c1CCN1CCC(c3noc4cc(F)ccc34)CC1)CCCC2 [RISPERIDONE] ... Compound metabolized
CCN(CC)CCOC(=O)C(Cc1cccc2ccccc12)CC1CCCO1.O=C(O)C(=O)O (configuration not stated) [NAFRONYL OXALATE] ... Compound metabolized

Using the record for CCc1nn(CCCN2CCN(c3cccc(Cl)c3)CC2)c(=O)n1CCOc1ccccc1 [NEFAZODONE] , report its Bacterial Biotransformation.
Compound NOT metabolized

One more compound: CN1CCc2c(c3ccccc3n2Cc2ccccc2)C1.CN1CCc2c(c3ccccc3n2Cc2ccccc2)C1.O=S(=O)(O)c1cccc2c(S(=O)(=O)O)cccc12
Compound NOT metabolized

Follow-up entry: O=C(Nc1ccccc1)OCC(CN1CCCCC1)OC(=O)Nc1ccccc1 (configuration not stated) [DIPERODON]
Compound NOT metabolized

Subsequent entry: CCN(CC)C(=O)/C(C#N)=C/c1cc(O)c(O)c([N+](=O)[O-])c1 [ENTACAPONE]
Compound metabolized

Can you handle CCN(CC)CC#CCOC(=O)C(O)(c1ccccc1)C1CCCCC1.Cl (configuration not stated) [OXYBUTYNIN CHLORIDE] next?
Compound metabolized

Another compound to check: CC(C)NCC(O)COc1ccc(COCCOC(C)C)cc1.CC(C)NCC(O)COc1ccc(COCCOC(C)C)cc1.O=C(O)/C=C/C(=O)O (configuration not stated) [BISOPROLOL FUMARATE]
Compound metabolized

Next entry: CCCc1nn(C)c2c(=O)[nH]c(-c3cc(S(=O)(=O)N4CCN(C)CC4)ccc3OCC)nc12.O=C(O)CC(O)(CC(=O)O)C(=O)O [SILDENAFIL CITRATE]
Compound NOT metabolized

Then what about the compound COc1ccccc1OCC(O)CN1CCN(CC(=O)Nc2c(C)cccc2C)CC1 (configuration not stated) [RANOLAZINE] ?
Compound metabolized

Would you kindly repeat that for CN1CCC(=C2c3ccccc3CCc3cccnc32)CC1.O=C(O)/C=C\C(=O)O.O=C(O)/C=C\C(=O)O [AZATADINE MALEATE] ?
Compound NOT metabolized

Try the compound COc1cc2nc(N3CCN(C(=O)c4ccco4)CC3)nc(N)c2cc1OC [PRAZOSIN]
Compound NOT metabolized

Moving on to N#Cc1ccc(C(c2ccc(C#N)cc2)n2cncn2)cc1 [LETROZOLE]
Compound metabolized

Please answer likewise for COc1ccccc1OCC(O)COC(N)=O (configuration not stated) [METHOCARBAMOL]
Compound NOT metabolized

Next entry: CC(C)(C#N)c1cc(Cn2cncn2)cc(C(C)(C)C#N)c1 [ANASTROZOLE]
Compound metabolized
